In this section, each of the binders is paired with its reported pKd.
# ASSAY_SYSTEM: T1, PUF4 RNA-binding domain (Saccharomyces cerevisiae, UniProt P25339 537-888)
# T1 sequence: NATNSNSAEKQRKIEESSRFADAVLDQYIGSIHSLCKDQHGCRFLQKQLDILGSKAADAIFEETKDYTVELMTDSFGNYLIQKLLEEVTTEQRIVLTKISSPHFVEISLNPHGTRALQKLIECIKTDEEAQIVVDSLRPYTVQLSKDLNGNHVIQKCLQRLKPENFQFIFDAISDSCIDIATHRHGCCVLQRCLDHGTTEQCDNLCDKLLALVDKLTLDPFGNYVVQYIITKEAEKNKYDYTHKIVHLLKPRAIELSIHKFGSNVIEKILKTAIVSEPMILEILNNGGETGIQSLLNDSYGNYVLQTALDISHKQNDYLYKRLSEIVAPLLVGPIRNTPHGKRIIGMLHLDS
# MEASUREMENT_PROTOCOL: Mg; RNA-MaP; 20 mM Na-HEPES pH 7.4, 30 mM KOAc, 0.75 mM MgCl2, 0.1% Tween-20, 5% glycerol, 0.1 mg/mL BSA, 2 mM DTT; 25 C; 0.0125-409.6 nM protein
# RUN_PARAMETERS: tags: N-His6-TEV cleaved; C-SNAP kept, Cy3B-labelled; label: tethered on chip by stalled RNA polymerase
Units for pKd: none; it is -log10 of a concentration expressed in mol/L.

**Q:** What measured pKd goes with UCUCUUUCUAUAUUAUUAAUUCUCUU (ssRNA) [Id_ii_S1_P5E.3_K5.2_C5.2_[C-2T]_[T-1C]_H5.2_A5.1_F5.1_T5.2_[T11A]_[A12T]] ?
**A:** 6.21
